This collection of values is drawn from paper PMC5540273.

Measured %Inh values are reported for all entries that follow.
Tested on: PCTK1;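 note: KINOMEscan kinase panel screen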
Construct: gene CDK16
APPLIED_CONDITIONS: concentration: 1 μM, replicates: in singlicate; n = 1
PROPERTY_LABEL: %Inh (%)

[[record]]
compound = "CCCCc1nn2ncccc2c1-c1ccnc(NC2CC2)n1"
uom = "%"
measured_value = 7

[[record]]
compound = "CNc1nc(-c2ccc3c(N)n[nH]c3c2)cc(N2C[C@@H](C(=O)Nc3ccccc3)CC[C@H]2C)n1"
uom = "%"
measured_value = 2

[[record]]
compound = "Cc1cnc(N)c(/C=C/c2cncc(C(=O)NCCc3ccc(Cl)cc3Cl)c2)c1.Cl"
uom = "%"
measured_value = 1

[[record]]
compound = "CC(C)c1ccc(O)cc1Nc1ccnc2ccc(C(F)(F)F)cc12"
uom = "%"
measured_value = 2

[[record]]
compound = "CNc1nc(-c2ccc3c(N)n[nH]c3c2)cc(N2C[C@@H](C(=O)NC3CCCCC3)OC[C@H]2C)n1"
uom = "%"
measured_value = 0

[[record]]
compound = "O=c1cc(N2CCOCC2)nc2n(Cc3ccccc3F)ccn12"
uom = "%"
measured_value = 0

[[record]]
compound = "COc1cccc(CNC(=O)NC2CCN(c3ccnc(Nc4ccc(F)cc4)n3)C2)c1 (stereo not shown)"
uom = "%"
measured_value = 10

[[record]]
compound = "COC(=O)C(Cc1ccccc1)NC(=O)NC1CCN(c2ccnc(Nc3ccc(F)cc3)n2)C1 (stereo not shown)"
uom = "%"
measured_value = 5

[[record]]
compound = "Cc1nccc(-c2c(-c3ccc(F)cc3)ncn2CCCN2CCOCC2)n1.Cl"
uom = "%"
measured_value = 1

[[record]]
compound = "Cc1ccc(NC(=O)Nc2ccccc2)cc1-c1ccc(C(=O)Nc2ccncc2)cc1"
uom = "%"
measured_value = 4


----------
Record: Kd reported on PIK3CB.
PROPERTY_LABEL: Kd (nM)

[[record]]
smiles_input = "Cc1ccccc1Cn1ccn2c(=O)cc(N3CCOCC3)nc12"
system_name = "PIK3CB"
value_qualifier = "="
measured_value = 27

[[record]]
smiles_input = "Cc1c(Cn2c(C)c(C)n3c(=O)cc(N4CCOCC4)nc23)cccc1C(F)(F)F"
system_name = "PIK3CB"
value_qualifier = "="
measured_value = 16

[[record]]
smiles_input = "Cc1c(Cn2c3ccccc3n3c(=O)cc(N4CCOCC4)nc23)cccc1C(F)(F)F"
system_name = "PIK3CB"
value_qualifier = "="
measured_value = 680

[[record]]
smiles_input = "CCn1c(-c2c(N)noc2C)nc2cnccc21"
system_name = "PIK3CB"
value_qualifier = ">"
measured_value = 10000

[[record]]
smiles_input = "O=c1cc(N2CCOCC2)nc2n(Cc3cccc(Cl)c3Cl)c3ccccc3n12"
system_name = "PIK3CB"
value_qualifier = "="
measured_value = 860


----------
Test system: DDR1
PROPERTY_LABEL: Kd

[[record]]
compound = "Cc1ccc(NC(=O)c2ccc(Cl)cc2)cc1-c1ccc(C(=O)Nc2ccncc2)cc1"
system_name = "DDR1"
measured_value = "710 nM"

[[record]]
compound = "Cc1ccc(NC(=O)Nc2ccc(Cl)c(C(F)(F)F)c2)cc1-c1ccc(C(=O)Nc2ccncc2)cc1"
system_name = "DDR1"
measured_value = "120 nM"

[[record]]
compound = "COc1ccc(Nc2nccc(N3CCC(NC(=O)c4cc5ccccc5s4)C3)n2)cc1 (stereo not shown)"
system_name = "DDR1"
measured_value = "> 10000 nM"

[[record]]
compound = "Cc1ccc(NC(=O)Nc2ccc(Cl)cc2)cc1-c1ccc(C(=O)Nc2ccncc2)cc1"
system_name = "DDR1"
measured_value = "73 nM"

